system: Cytochrome P450 2C9 (Homo sapiens)
Sequence (P11712 whole entry): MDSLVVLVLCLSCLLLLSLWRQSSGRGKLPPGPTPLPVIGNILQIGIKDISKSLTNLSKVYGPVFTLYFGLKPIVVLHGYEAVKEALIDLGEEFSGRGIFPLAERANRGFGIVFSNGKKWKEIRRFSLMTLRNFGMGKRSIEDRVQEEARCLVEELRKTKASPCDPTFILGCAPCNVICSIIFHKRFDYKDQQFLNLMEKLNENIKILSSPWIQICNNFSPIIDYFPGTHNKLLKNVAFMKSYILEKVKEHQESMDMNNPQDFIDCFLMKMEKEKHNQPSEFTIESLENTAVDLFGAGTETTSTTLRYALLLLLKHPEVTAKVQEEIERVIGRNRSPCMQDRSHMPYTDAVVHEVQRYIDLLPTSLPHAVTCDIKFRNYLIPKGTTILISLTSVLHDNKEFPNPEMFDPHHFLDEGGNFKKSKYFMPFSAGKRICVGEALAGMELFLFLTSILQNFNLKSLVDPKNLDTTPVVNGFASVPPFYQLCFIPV

smiles_entry	IC50
C[C@H]1CN(Cc2cccc(-c3cc(CNC(=O)c4cccc(CC5CCNCC5)c4)ccc3F)c2)CCN1	> 10 µM

---

system: Muscarinic acetylcholine receptor M3 (Homo sapiens)
Sequence (P20309 whole entry): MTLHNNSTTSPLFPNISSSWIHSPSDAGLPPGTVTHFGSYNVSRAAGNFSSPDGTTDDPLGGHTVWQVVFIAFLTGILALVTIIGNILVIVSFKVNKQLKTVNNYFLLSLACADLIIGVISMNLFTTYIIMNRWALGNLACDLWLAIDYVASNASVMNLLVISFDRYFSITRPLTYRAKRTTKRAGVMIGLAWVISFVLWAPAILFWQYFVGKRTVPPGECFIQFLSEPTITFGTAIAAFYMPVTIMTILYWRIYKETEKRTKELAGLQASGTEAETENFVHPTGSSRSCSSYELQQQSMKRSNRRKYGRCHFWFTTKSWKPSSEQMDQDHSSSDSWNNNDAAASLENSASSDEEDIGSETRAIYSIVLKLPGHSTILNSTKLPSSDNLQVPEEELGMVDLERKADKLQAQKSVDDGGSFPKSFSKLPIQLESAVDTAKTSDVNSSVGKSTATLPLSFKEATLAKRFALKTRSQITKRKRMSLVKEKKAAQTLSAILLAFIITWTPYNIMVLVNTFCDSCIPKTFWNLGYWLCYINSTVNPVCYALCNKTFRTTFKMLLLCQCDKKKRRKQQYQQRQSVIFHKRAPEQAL
protocol_summary: Inhibition of human cloned muscarinic M3 receptor expressed in CHO cells by FLIPR assay
pIC50: −log10 of the molar value.

smiles_entry	pIC50
O=C(NCc1cccc(-c2cccc(CN3CCNCC3)c2)c1)c1ccc2c(c1)OCO2	7.50

---

protocol_summary: Permeability across artificial phospholipid membrane
Format: ADME
setup_conditions: not told; read-out: permeability

smiles_entry	Papp
C[C@H]1CN(Cc2cccc(-c3cc(CNC(=O)c4cccc(CC5CCNCC5)c4)ccc3F)c2)CCN1	< 3 nm/s

---

system: UniProt P08172
protocol_summary: Inhibition of human cloned muscarinic M2 receptor-Gqi5 chimeric protein expressed in CHO cells by FLIPR assay

smiles_entry	IC50
O=C(NCc1cccc(-c2cccc(CN3CCNCC3)c2)c1)c1ccc2c(c1)OCO2	> 3.16 µM

---

system: Muscarinic acetylcholine receptor M1 and M3 (Homo sapiens) (UniProt P20309+P11229)
Sequence (P11229 whole entry, looked up): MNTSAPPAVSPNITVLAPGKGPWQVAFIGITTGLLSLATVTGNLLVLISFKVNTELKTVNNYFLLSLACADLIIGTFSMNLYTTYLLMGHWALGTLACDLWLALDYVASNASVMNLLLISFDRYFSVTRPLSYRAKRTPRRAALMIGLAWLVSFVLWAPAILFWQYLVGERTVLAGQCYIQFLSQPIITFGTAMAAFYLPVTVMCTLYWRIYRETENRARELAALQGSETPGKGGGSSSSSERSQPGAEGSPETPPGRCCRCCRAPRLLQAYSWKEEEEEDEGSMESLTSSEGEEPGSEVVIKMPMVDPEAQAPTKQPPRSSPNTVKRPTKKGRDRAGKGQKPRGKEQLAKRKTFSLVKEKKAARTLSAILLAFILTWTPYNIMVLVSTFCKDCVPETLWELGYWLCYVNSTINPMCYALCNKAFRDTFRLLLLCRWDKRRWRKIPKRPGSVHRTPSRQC
Sequence (P20309 whole entry, looked up): as the sequence (P20309 whole entry) above
protocol_summary: Selectivity for human cloned muscarinic M3 receptor over human cloned muscarinic M1 receptor

smiles_entry	Ratio
O=C(NCc1cccc(-c2cccc(CN3CCNCC3)c2)c1)c1ccc2c(c1)OCO2	5
C[C@H]1CN(Cc2cccc(-c3cc(CNC(=O)c4cccc(CN5CCNCC5)c4)ccc3F)c2)CCN1	6
CC(=O)c1cccc(C(=O)NCc2ccc(F)c(-c3cccc(CN4CCN[C@@H](C)C4)c3)c2)c1	50
C[C@H]1CN(Cc2cccc(-c3cc(CNC(=O)c4cccc(CC5CCNCC5)c4)ccc3F)c2)CCN1	20

---

Recorded Kb by entry
system: Muscarinic acetylcholine receptor M1 (Homo sapiens)
Sequence (P11229 whole entry): as the sequence (P11229 whole entry, looked up) above
protocol_summary: Antagonist activity at cloned muscarinic M1 receptor expressed in CHO cells assessed as acetylcholine-induced change in cytosolic calcium concentration by FLIPR assay
Format: functional, cell-based
setup_conditions: read-out: pA2 (converted)

smiles_entry	unit_of_measure	Kb
CCC(=O)c1cccc(C(=O)NCc2ccc(F)c(-c3cccc(CN4CCN[C@@H](C)C4)c3)c2)c1	nM	1
C[C@H]1CN(Cc2cccc(-c3cc(CNC(=O)c4cccc(CN5CCNCC5)c4)ccc3F)c2)CCN1	nM	1
C[C@H]1CN(Cc2cccc(-c3cc(CNC(=O)c4cccc(CN5CC[N+](C)(C)CC5)c4)ccc3F)c2)CCN1.O=C([O-])C(F)(F)F	nM	2
C[C@H]1CN(Cc2cccc(-c3cc(CNC(=O)c4cccc(CC5CCNCC5)c4)ccc3F)c2)CCN1	nM	2.51
CC(=O)c1cccc(C(=O)NCc2ccc(F)c(-c3cccc(CN4CCN[C@@H](C)C4)c3)c2)c1	nM	2.51
C[C@H]1CN(Cc2cccc(-c3cc(CNC(=O)c4cccc(C#N)c4)ccc3F)c2)CCN1	nM	7.94

---

system: Muscarinic acetylcholine receptor M3 (Homo sapiens)
protocol_summary: Antagonist activity at cloned muscarinic M3 receptor expressed in CHO cells assessed as acetylcholine-induced change in cytosolic calcium concentration by FLIPR assay
Format: functional, cell-based
setup_conditions: read-out: pA2 (converted)

smiles_entry	Kb
C[C@H]1CN(Cc2cccc(-c3cc(CNC(=O)c4cccc(CN5CCNCC5)c4)ccc3F)c2)CCN1	0.158 nM
C[C@H]1CN(Cc2cccc(-c3cc(CNC(=O)c4cccc(C#N)c4)ccc3F)c2)CCN1	0.251 nM
C[C@H]1CN(Cc2cccc(-c3cc(CNC(=O)c4cccc(CC5CCNCC5)c4)ccc3F)c2)CCN1	0.01 nM
CCC(=O)c1cccc(C(=O)NCc2ccc(F)c(-c3cccc(CN4CCN[C@@H](C)C4)c3)c2)c1	0.0501 nM
CC(=O)c1cccc(C(=O)NCc2ccc(F)c(-c3cccc(CN4CCN[C@@H](C)C4)c3)c2)c1	0.0501 nM

---

system: Muscarinic acetylcholine receptors; M2 & M3 (Homo sapiens) (UniProt P20309+P08172)
protocol_summary: Selectivity for human cloned muscarinic M3 receptor over human cloned muscarinic M2 receptor
Outcome label depends on Ratio relative to 400: at/above gives 1 (yes), below gives 0 (no).

smiles_entry	label
C[C@H]1CN(Cc2cccc(-c3cc(CNC(=O)c4cccc(CC5CCNCC5)c4)ccc3F)c2)CCN1	1 (yes)
O=C(NCc1cccc(-c2cccc(CN3CCNCC3)c2)c1)c1ccc2c(c1)OCO2	0 (no)
C[C@H]1CN(Cc2cccc(-c3cc(CNC(=O)c4cccc(CN5CC[N+](C)(C)CC5)c4)ccc3F)c2)CCN1.O=C([O-])C(F)(F)F	0 (no)
CC(=O)c1cccc(C(=O)NCc2ccc(F)c(-c3cccc(CN4CCN[C@@H](C)C4)c3)c2)c1	1 (yes)

---

system: Muscarinic acetylcholine receptor M2 (Homo sapiens)
Sequence (P08172 whole entry): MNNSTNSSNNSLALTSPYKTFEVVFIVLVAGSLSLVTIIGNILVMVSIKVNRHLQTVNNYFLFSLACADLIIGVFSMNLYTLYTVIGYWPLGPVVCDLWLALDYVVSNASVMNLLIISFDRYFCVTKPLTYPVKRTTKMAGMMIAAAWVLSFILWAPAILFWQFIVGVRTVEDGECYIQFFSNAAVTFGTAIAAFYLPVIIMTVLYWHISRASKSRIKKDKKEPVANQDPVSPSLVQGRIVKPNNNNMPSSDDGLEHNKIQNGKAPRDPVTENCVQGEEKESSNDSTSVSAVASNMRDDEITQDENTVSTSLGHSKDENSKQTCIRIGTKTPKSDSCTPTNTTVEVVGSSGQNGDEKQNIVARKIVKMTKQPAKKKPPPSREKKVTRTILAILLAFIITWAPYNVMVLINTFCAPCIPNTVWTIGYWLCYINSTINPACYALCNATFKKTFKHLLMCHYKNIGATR
protocol_summary: Antagonist activity at cloned muscarinic M2 receptor-Gqi5 chimeric protein expressed in CHO cells assessed as acetylcholine-induced change in cytosolic calcium concentration by FLIPR assay
Assay type: functional, cell-based
setup_conditions: read-out: pA2 (converted)
molecules and their reported Kb
property_label: Kb (nM)

smiles_entry	number
C[C@H]1CN(Cc2cccc(-c3cc(CNC(=O)c4cccc(C#N)c4)ccc3F)c2)CCN1	316
CCC(=O)c1cccc(C(=O)NCc2ccc(F)c(-c3cccc(CN4CCN[C@@H](C)C4)c3)c2)c1	25.1
C[C@H]1CN(Cc2cccc(-c3cc(CNC(=O)c4cccc(CN5CC[N+](C)(C)CC5)c4)ccc3F)c2)CCN1.O=C([O-])C(F)(F)F	12.6
C[C@H]1CN(Cc2cccc(-c3cc(CNC(=O)c4cccc(CC5CCNCC5)c4)ccc3F)c2)CCN1	5.01
C[C@H]1CN(Cc2cccc(-c3cc(CNC(=O)c4cccc(CN5CCNCC5)c4)ccc3F)c2)CCN1	63.1
CC(=O)c1cccc(C(=O)NCc2ccc(F)c(-c3cccc(CN4CCN[C@@H](C)C4)c3)c2)c1	100
